Values were extracted from patent US20240116985A1.

Recorded NanoBRET Abs IC50, one value per entry.
Biological target: T1, B-cat-Halo (beta-catenin HaloTag NanoBRET construct expressed in HEK293 cells) (UniProt P35222 1-781)
T1 sequence (looked up): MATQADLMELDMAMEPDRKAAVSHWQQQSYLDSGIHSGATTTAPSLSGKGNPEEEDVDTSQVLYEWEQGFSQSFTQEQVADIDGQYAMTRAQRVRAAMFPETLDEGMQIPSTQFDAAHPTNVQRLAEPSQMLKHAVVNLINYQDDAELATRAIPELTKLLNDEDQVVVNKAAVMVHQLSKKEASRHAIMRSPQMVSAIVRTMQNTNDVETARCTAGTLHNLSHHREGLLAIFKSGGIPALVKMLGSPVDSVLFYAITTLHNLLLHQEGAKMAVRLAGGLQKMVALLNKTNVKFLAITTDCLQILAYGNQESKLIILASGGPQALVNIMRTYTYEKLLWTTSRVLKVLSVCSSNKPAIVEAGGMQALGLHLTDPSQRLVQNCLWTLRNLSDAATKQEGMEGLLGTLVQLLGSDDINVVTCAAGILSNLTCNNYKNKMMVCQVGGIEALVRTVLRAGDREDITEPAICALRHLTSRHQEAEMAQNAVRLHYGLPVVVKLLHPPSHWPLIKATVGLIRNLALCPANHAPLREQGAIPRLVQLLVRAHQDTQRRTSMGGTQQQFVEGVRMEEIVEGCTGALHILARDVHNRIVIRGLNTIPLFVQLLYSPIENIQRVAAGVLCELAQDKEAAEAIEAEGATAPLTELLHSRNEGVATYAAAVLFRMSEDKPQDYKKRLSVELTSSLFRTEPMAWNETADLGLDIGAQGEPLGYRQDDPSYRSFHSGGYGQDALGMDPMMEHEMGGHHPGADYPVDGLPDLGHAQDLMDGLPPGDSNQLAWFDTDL
Test: cell-based or functional assay
Starred links: 1 amine or outer side, 2 acyl side, 3 side chain; linkers in the order of their positions; H or OH if unused. Positions of bridges follow the written chain, without caps; N, C: chain ends. Non-standard residues stand in square brackets, D forms with d. Primed or numbered codes have the meaning given here. *: point of attachment. PyrS2(3) = (S)-3-amino-1-((pent-4-en-1-yloxy)carbonyl)pyrrolidine-3-carboxylic acid, stapling residue, C=CCCCOC(=O)N1CC[C@@](N[*:1])(C(=O)[*:2])C1; B5(18) = 2,2-bis(4-pentenyl)glycine (2-amino-2-(pent-4-en-1-yl)hept-6-enoic acid), stitching residue, C=CCCCC(CCCC=C)(N[*:1])C(=O)[*:2]; TfeGA = (S)-2-amino-3-((carboxymethyl)(2,2,2-trifluoroethyl)amino)propanoic acid, O=C([C@H](CN(CC(=O)[*:3])CC(F)(F)F)N[*:1])[*:2]; TriAzDap = Dap whose side chain is a 1H-1,2,3-triazol-1-yl bearing the bracketed 4-substituent; Bta = N[C@@H](Cc1csc2ccccc12)C(=O)O; αAllylPro = C=CC[C@@]1(C(=O)O)CCCN1; tBuAla = CC(C)(C)C[C@H](N)C(=O)O; 3Thi = N[C@@H](Cc1ccsc1)C(=O)O; MorphCH2 = C1CN(C*)CCO1

Examples with their reported NanoBRET Abs IC50 follow.
Ac-[αAllylPro]D[tBuAla][B5(18)]D[TfeGA]AAF[TriAzDap](CH2Ppz)[PyrS2(3)][3Thi][Bta]Q-NH2 (staple 1-4, 4-11; not fully specified) [I-1863]; 37.4 µM
Ac-[αAllylPro]D[tBuAla][B5(18)]D[TfeGA]AAF[TriAzDap](MorphCH2)[PyrS2(3)][3Thi][Bta]Q-NH2 (staple 1-4, 4-11; not fully specified) [I-1865]; > 20 µM
Ac-[αAllylPro]D[tBuAla][B5(18)]D[TfeGA]AAF[TriAzDap](CH2Ppz)[PyrS2(3)][3Thi][Bta]Q-NH2 (staple 1-4, 4-11; not fully specified) [I-1864]; > 20 µM
Ac-[αAllylPro]D[tBuAla][B5(18)]D[TfeGA]AAF[TriAzDap](SO2MorphCH2)[PyrS2(3)][3Thi][Bta]Q-NH2 (staple 1-4, 4-11; not fully specified) [I-1868]; 39.6 µM
Ac-[αAllylPro]D[tBuAla][B5(18)]D[TfeGA]AAF[TriAzDap](MorphCH2)[PyrS2(3)][3Thi][Bta]Q-NH2 (staple 1-4, 4-11; not fully specified) [I-1866]; > 20 µM

Moving on to the next binder.
Quick note, NanoBRET Abs IC50 for Ac-[αAllylPro]D[tBuAla][B5(18)]D[TfeGA]AAF[TriAzDap](MorphCH2)[PyrS2(3)][3Thi][Bta]Q-NH2 (staple 1-4, 4-11; not fully specified) [I-1867] landed at 16.4 µM
